All figures here come from patent US20220017636A1.

TARGET: T1, STXBP5 peptide complexed with HLA-A*02:01 on T2 cells (human)
T1 construct: whole, on cells
PROTOCOL DETAILS: flow cytometry, peptide-loaded T2 cells;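 note: binding of single-chain Fv antibody constructs, raised in XenoMouse, to peptide-pulsed T2 cells measured by flow cytometry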
OUTCOME MEASURE: Signal/background
Quick one: just the number, no unit, thanks!

Request: Consider the binder 18181-G8 (scFv, scFv in bacterial lysate, detected with anti-Flag M2) scFv: EVQLLESGGGLVQPGGSLRLSCAASGFTFSNAWMSWVRQAPGKGLEWVGRIKGNTYGGTTDYAAPVKGRFTISRDDSKNTLFLQMNSLKTEDTAVYYCTTPSNSGSYYNYFSVMDVWGQGTTVTVSSGGGGSGGGGSGGGGSELVMTQSPSSLSASVGDRVTITCRTSQSISSYLNWYQQKPGKAPKLLIYAASSLQSGVPSRFSGSGSGTDFTLTISSLQPEDFATYYCQQTYSMPFTFGGGTKVEIK and give its measured Signal/background.
Response: 1

Request: Consider the binder 18179-A7 (scFv, scFv in bacterial lysate, detected with anti-Flag M2) scFv: EVQLLESGGGLVKPGGSLRLSCAASGFTFSNAWMSWVRQAPGKGLEWVGRIKGNTYGGTTDYAAPVKGRFTISRDDSKNTLFLQMNSLKTEDTAVYYCTTPSYSGSYYNYFSVMDVWGQGTTVTVSSGGGGSGGGGSGGGGSELVMTQSPSSLSASVGDRVTITCRTSQSISSYLNWYQQKPGRAPKLLIFAASSLQGGVPSRFSGSGSGTDFTLTISSLQPEDFATYYCQQTYSMPFTFGPGTKVDIK and give its measured Signal/background.
Response: 1

Request: Consider the binder 18081-B9 (scFv, scFv in bacterial lysate, detected with anti-Flag M2) scFv: EVQLLESGPGLVKPSETLSLTCTVSGDSISSSRYYWGWIRQPPGKGLEWIGSIYYSGSTYYNPSLKSRVTISVDTSKNQFSLKLSSVTAADTAVYYCARGIFGVITYFDYWGQGTLVTVSSGGGGSGGGGSGGGGSELVMTQSPDSLAVSLGERATINCKSSQSVLYSSNNKNYLAWYQQKPGQPPKLLIYWASTRESGVPDRFSGSGSGTDFTLTISSLQAEDVAVYYCQQFYSTPITFGQGTRLEIK and give its measured Signal/background.
Response: 1

Request: Consider the binder 18182-G2 (scFv, scFv in bacterial lysate, detected with anti-Flag M2) scFv: EVQLLESGGGLVQPGGSLRLSCAASGFTFSSHAMSWVRQAPGKGLEWVSAISGSGGGTYNADSVKGRFTISRDNSKNTLYLQMNSLRAEDTAAYYCVTGKGVHLGFDYWGQGTLVTVSSGGGGSGGGGSGGGGSELVLTQPPSVSVAPGQTARITCGGNNIGSKSVHWYQQKPGQAPVMVVYDDNDRPSGIPERFSGSNSGNTATLTISRVEAGDEADYYCQVWDSSSDHVIFGGGTKLTVL and give its measured Signal/background.
Response: 0.9

Request: Consider the binder 18179-D11 (scFv, scFv in bacterial lysate, detected with anti-Flag M2) scFv: EVQLLESGGGLVKPGGSLRLSCAASGFTFSNAWMSWVRQAPGKGLEWVGRIKGNTYGGTTDYAAPVKGRFTISRDDSKNTLFLQMNSLKTEDTAVYYCTTPSYSGSYYNYFSVMDVWGQGTTVTVSSGGGGSGGGGSGGGGSELQMTQSPSSLSASVGDRVTITCRTSQSISSYLNWYQQKPGRAPKLLIFAASSLQGGVPSRFSGSGSGTDFTLTISSLQPEDFATYYCQQTYSMPFTFGPGTKVDIK and give its measured Signal/background.
Response: 1
